- systemTested: cGMP-dependent 3',5'-cyclic phosphodiesterase (Homo sapiens, UniProt O00408)
- Sequence (O00408 whole entry): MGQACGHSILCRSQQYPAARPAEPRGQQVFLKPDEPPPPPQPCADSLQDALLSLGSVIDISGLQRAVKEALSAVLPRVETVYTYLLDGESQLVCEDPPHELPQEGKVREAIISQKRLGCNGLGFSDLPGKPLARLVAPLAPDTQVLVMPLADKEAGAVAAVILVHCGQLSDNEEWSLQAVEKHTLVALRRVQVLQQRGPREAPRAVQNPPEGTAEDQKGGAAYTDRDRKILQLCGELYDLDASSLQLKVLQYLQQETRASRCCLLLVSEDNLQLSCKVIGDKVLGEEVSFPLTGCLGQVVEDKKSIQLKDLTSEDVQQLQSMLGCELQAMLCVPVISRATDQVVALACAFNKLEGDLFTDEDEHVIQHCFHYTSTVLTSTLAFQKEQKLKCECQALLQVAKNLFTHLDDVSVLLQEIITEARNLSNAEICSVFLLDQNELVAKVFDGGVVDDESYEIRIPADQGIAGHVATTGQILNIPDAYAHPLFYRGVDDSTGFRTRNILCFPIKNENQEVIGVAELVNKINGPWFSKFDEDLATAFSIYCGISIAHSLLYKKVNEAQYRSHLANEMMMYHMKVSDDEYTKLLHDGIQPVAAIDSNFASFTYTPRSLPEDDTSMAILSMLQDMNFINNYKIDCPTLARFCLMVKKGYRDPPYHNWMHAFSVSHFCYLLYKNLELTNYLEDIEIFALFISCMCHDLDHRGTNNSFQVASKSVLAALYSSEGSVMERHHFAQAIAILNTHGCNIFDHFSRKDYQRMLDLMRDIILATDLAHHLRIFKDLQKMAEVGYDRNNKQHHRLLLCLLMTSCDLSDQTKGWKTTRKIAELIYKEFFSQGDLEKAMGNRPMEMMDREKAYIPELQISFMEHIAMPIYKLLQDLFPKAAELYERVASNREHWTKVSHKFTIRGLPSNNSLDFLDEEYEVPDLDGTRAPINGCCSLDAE
propertyName: IC50 (µM)
Could you give me the number in µM? Just the number is fine.

IC50 on cGMP-dependent 3',5'-cyclic phosphodiesterase (Homo sapiens, UniProt O00408) for O=C(O)c1cc(-c2ccc(C3CCNCC3)cc2)c2ccc(-c3ccc(C(F)(F)F)cc3)cc2c1 [PPTN] is 86.9

* * *

- systemTested: Sodium-dependent dopamine transporter (Homo sapiens, UniProt Q01959)
- Sequence (Q01959 whole entry): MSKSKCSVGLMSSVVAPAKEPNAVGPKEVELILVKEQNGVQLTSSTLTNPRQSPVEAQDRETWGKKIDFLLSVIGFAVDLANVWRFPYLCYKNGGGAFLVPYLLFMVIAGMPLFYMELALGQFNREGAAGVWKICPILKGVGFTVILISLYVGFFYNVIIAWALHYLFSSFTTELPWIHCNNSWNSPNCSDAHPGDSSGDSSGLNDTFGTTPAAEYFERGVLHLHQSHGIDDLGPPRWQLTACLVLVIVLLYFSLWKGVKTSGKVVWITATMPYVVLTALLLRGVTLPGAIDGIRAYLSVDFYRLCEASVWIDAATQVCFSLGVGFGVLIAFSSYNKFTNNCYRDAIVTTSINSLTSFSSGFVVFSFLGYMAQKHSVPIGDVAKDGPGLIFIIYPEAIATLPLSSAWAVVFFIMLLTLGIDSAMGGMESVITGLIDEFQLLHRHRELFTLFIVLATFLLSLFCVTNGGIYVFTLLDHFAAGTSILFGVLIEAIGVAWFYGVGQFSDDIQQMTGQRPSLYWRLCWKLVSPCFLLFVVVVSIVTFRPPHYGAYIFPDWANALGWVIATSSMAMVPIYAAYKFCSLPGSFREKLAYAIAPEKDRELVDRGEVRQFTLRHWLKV
propertyName: Ki (nM)
Reply with just the number (in nM).

For O=C(O)c1cc(-c2ccc(C3CCNCC3)cc2)c2ccc(-c3ccc(C(F)(F)F)cc3)cc2c1 [PPTN] on Sodium-dependent dopamine transporter (Homo sapiens, UniProt Q01959), measured Ki was 1830

* * *

Collected pKi values appear next to each entry.
- systemTested: D(1A) dopamine receptor (Homo sapiens, UniProt P21728)
- methodNotes: GPCRScan assay: inhibition of D1
pKi here: minus log base 10 of the concentration, concentration in moles per litre.

| smilesRepr | systemTested | pKi |
| --- | --- | --- |
| O=C(O)c1cc(-c2ccc(C3CCNCC3)cc2)c2ccc(-c3ccc(C(F)(F)F)cc3)cc2c1 | D(1A) dopamine receptor (Homo sapiens, UniProt P21728) | 5.00 |

API: the following record is the query input.
Query `Cc1c(C(=O)O)cc(-c2ccc(C3CCNCC3)cc2)c2ccc(-c3ccc(C(F)(F)F)cc3)cc12` yields pKi of 5.67

* * *

- systemTested: L-type calcium channel, dihydropyridine site (Cav1.2 alpha-1C) (Homo sapiens, UniProt Q13936)
- Sequence (Q13936 whole entry): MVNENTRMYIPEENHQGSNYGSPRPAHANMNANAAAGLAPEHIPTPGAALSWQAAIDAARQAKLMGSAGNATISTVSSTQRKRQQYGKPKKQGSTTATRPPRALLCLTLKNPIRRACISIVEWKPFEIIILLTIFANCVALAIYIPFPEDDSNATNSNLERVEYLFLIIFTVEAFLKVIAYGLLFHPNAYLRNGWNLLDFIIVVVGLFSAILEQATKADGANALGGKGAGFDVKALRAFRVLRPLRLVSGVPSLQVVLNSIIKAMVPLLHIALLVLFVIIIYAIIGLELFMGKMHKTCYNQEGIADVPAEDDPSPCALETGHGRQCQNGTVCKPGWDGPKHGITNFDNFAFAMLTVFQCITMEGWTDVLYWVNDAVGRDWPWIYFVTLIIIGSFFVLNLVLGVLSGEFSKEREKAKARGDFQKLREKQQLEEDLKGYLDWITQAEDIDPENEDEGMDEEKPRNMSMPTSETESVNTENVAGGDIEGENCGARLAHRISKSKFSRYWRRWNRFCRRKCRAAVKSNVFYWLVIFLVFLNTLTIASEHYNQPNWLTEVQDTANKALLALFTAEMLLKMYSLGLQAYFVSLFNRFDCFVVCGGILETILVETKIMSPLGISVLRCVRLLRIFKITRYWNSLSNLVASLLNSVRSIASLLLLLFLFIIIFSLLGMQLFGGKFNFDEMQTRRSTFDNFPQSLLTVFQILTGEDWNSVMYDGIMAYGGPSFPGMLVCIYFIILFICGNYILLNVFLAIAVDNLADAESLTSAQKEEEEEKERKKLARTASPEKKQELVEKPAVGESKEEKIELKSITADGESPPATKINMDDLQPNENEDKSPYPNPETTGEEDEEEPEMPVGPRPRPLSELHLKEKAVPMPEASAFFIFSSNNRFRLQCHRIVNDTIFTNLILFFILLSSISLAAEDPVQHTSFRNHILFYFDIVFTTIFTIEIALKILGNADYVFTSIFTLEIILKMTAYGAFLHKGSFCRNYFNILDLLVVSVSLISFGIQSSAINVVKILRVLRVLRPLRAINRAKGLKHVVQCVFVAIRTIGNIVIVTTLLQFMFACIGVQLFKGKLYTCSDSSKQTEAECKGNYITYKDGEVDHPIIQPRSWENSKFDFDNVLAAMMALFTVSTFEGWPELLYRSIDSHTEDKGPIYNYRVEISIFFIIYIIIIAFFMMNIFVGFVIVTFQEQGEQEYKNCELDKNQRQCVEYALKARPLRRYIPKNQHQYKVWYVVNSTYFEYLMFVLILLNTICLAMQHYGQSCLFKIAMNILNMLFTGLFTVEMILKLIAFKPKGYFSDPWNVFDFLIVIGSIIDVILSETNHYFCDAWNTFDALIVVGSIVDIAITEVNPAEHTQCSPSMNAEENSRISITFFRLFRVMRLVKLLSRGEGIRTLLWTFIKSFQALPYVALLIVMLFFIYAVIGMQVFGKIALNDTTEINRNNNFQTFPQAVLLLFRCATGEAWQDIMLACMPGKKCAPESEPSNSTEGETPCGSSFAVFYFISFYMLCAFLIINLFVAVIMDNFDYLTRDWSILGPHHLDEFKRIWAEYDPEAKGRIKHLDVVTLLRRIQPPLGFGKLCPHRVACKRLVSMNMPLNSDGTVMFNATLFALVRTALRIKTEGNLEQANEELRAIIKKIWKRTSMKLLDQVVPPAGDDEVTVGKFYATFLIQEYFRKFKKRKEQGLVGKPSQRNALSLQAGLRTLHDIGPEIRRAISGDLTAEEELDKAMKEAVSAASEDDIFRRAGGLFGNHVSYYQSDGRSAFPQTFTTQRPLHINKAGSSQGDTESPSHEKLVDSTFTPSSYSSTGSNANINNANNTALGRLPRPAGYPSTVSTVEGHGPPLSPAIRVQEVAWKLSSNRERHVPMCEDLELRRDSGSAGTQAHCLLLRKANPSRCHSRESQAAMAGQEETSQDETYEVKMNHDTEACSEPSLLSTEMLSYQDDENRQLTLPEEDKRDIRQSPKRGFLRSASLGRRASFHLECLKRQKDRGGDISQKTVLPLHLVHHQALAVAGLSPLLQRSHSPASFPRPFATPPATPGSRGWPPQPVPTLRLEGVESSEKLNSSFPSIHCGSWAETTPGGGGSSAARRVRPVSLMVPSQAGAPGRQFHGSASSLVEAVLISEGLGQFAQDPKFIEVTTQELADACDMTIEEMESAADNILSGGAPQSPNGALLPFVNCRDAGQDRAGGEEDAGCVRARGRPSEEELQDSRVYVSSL
- methodNotes: Inhibition of Calcium Channel L-Type, Dihydropyridine at 10 µM in the Eurofins-Panlabs radioligand binding assay (Eurofins_assay_214600)
- Design: ligand concentration 0.1 nM, non-specific ligand with concentration 1 µM Nitrendipine, incubation time 90 min, incubation temperature 25 °C
- conditionParameters: Wistar, rat, rat cerebral cortex preparation, probe [3H] Nitrendipine, 0.1 nM; compound concentration 10 uM; target entry is the homologue from another species
propertyName: inhibition at 90 min, 10 µM

Measured inhibition at 90 min, 10 µM, `O=C(O)c1cc(-c2ccc(C3CCNCC3)cc2)c2ccc(-c3ccc(C(F)(F)F)cc3)cc2c1` : 20% (not active)

* * *

- systemTested: Beta-3 adrenergic receptor (Homo sapiens, UniProt P13945)
- Sequence (P13945 whole entry): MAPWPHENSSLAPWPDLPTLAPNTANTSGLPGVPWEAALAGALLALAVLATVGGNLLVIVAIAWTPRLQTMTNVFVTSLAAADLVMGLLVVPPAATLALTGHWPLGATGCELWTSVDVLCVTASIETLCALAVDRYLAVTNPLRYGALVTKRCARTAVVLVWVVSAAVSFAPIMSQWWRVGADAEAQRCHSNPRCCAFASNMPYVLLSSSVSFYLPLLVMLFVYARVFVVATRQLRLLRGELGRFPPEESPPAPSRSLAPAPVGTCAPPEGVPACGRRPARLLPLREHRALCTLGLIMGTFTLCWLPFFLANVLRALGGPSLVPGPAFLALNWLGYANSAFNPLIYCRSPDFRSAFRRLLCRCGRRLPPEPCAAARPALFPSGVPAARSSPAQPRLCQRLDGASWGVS
- methodNotes: Inhibition of Adrenergic beta3 at compound concentration of 10.0 uM in the Eurofins-Panlabs radioligand binding assay (Eurofins_assay_204200)
- Design: ligand concentration 0.5 nM, non-specific ligand with concentration 1000 uM Alprenolol, incubation time 90 min, incubation temperature 25 C
propertyName: Ki
Note: state the figure and append the unit.

Reported Ki for `O=C(O)c1cc(-c2ccc(C3CCNCC3)cc2)c2ccc(-c3ccc(C(F)(F)F)cc3)cc2c1` was 7.2 µM

* * *

Each entry below carries its measured pKi, system: D(1B) dopamine receptor (Homo sapiens, UniProt P21918).
Sequence (P21918 whole entry): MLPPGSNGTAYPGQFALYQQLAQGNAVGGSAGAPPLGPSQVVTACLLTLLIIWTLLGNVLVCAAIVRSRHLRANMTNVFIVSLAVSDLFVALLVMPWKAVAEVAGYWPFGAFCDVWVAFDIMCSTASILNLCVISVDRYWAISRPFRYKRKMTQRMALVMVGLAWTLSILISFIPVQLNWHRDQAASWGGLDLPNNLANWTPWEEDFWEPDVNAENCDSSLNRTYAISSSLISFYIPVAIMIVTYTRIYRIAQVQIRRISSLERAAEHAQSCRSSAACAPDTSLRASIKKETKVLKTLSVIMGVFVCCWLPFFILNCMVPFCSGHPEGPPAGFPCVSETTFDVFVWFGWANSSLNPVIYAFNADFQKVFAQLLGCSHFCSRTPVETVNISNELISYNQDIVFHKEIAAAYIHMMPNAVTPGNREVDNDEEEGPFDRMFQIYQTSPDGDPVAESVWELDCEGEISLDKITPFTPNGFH
// pKi is dimensionless: -log10 of concentration (M)

| smilesRepr | systemTested | experimentalResult |
| --- | --- | --- |
| Cc1c(C(=O)O)cc(-c2ccc(C3CCNCC3)cc2)c2ccc(-c3ccc(C(F)(F)F)cc3)cc12 | D(1B) dopamine receptor (Homo sapiens, UniProt P21918) | 5.54 |

Note to self: pKi recorded for `O=C(O)c1cc(-c2ccc(C3CCNCC3)cc2)c2ccc(-c3ccc(C(F)(F)F)cc3)cc2c1` was 5.55
